target: rat NPFF2 receptor (Rattus norvegicus)
Construct: The full-length NPFF2 was amplified from rat spinal cord cDNA; expressed in transfected cells; host or cells: not given
assay.method.text: Functional assay (agonist potency, intrinsic activity) at cloned rat NPFF2 receptor
Assay type: cell-based
stated.conditions: Table 7, intrinsic activity
Below, each entry is listed with its recorded rNPFF2 IA.
Answer as a quantity: numeral, then unit.

Some solved entries appear below for comparison.
CCCCCc1ccc2nc(NC(=N)N)nc(C)c2c1 [Compound 2001A] :: 103% NPFF
Cc1nc(NC(=N)N)nc2ccc(C(C)(C)C)cc12 [Compound 1004A] :: 90% NPFF
Cc1nc(NC(=N)N)nc2cc(C(C)C)ccc12 [Compound 1021A] :: 76% NPFF
Cc1cc(NC(=N)N)nc2ccc3ccccc3c12 [Compound 4009A] :: 70% NPFF
Cc1nc(NC(=N)N)nc2cc(F)c(F)cc12 [Compound 1019A] :: 31% NPFF
Cc1nc(NC(=N)N)nc2ccc3ccccc3c12 [Compound 1007A] :: 66% NPFF
Cc1nc(NC(=N)N)nc2ccc(OCc3ccccc3)cc12 [Compound 1028A] :: 79% NPFF
Cc1nc(NC(=N)N)nc2cc(OC(F)(F)F)ccc12 [Compound 1036A] :: 78% NPFF

## Task Reported rNPFF2 IA, compound CCCCCc1ccc2nc(NC(=N)N)cc(C)c2c1 [Compound 5002A] : ____
## Result 90% NPFF

## Task Reported rNPFF2 IA, compound Cc1nc(NC(=N)N)nc2ccccc12 [Compound 1001A, N-(4-methyl-2-quinazolinyl)guanidine] : ____
## Result 16% NPFF

## Task Reported rNPFF2 IA, compound CCc1ccc2c(C)nc(NC(=N)N)nc2c1 [Compound 1020A] : ____
## Result 90% NPFF

## Task Reported rNPFF2 IA, compound Cc1nc(NC(=N)N)nc2ccc(Oc3ccccc3)cc12 [Compound 1032A] : ____
## Result 93% NPFF

## Task Reported rNPFF2 IA, compound CCCCc1ccc2nc(NC(=N)N)nc(C)c2c1 [Compound 2004A] : ____
## Result 101% NPFF

## Task Reported rNPFF2 IA, compound Cc1nc(NC(=N)N)nc2cc(C(C)(C)C)ccc12 [Compound 1022A] : ____
## Result 81% NPFF

###

target: human Y1 receptor (Homo sapiens, UniProt P25929)
Sequence (P25929 1-384): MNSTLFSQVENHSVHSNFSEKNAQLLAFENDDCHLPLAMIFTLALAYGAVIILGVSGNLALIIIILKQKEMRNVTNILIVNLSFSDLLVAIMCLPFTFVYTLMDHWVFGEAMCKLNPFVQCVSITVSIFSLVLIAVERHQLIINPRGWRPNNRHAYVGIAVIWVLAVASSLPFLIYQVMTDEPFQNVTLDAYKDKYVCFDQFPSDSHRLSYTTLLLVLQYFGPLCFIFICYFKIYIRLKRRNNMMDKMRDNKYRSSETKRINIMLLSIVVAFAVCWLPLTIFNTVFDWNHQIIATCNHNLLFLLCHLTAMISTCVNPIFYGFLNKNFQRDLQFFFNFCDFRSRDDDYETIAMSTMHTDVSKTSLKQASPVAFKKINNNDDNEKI
readout.label: pKi
Conceptually, pKi converts a concentration in mol/L into minus its log10.

Cc1nc(NC(=N)N)nc2ccc3ccccc3c12 [Compound 1007A] :: 5.28

Could you now consider this next molecule?
## Task Reported pKi, molecule Cc1cc(NC(=N)N)nc2ccc(Cl)cc12 [Compound 4005A] : ____
## Result 4.91

###

target: rat NPFF2 receptor (Rattus norvegicus, UniProt Q9EQD2)
Construct: The full-length NPFF2 was amplified from rat spinal cord cDNA; expressed in transfected cells; host or cells: not given
Sequence (Q9EQD2 whole entry): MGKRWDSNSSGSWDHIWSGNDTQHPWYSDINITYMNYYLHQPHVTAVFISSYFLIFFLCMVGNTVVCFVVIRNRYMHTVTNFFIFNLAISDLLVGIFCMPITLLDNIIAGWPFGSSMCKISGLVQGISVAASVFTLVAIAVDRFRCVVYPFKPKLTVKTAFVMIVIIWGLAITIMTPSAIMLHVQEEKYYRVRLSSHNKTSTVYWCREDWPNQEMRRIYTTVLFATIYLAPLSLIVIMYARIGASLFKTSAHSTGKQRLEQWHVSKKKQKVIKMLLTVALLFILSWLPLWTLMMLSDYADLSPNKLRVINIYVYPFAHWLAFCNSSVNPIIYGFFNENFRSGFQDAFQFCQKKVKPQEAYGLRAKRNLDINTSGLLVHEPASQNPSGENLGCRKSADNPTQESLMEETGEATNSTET
assay.method.text: Functional assay (agonist potency, intrinsic activity) at cloned rat NPFF2 receptor
Assay type: cell-based
stated.conditions: Table 7, intrinsic activity
Below, each entry is listed with its recorded rNPFF2 IA.
Field: numeric (% NPFF). Do not append units.

Some solved entries appear below for comparison.
Cc1nc(NC(=N)N)nc2ccc(OCCCCCOc3ccccc3)cc12 [Compound 1005A] :: 21
CCCc1ccc2nc(NC(=N)N)nc(C)c2c1 [Compound 1008A] :: 85
Cc1nc(NC(=N)N)nc2cc(OCc3ccccc3)ccc12 [Compound 1006A] :: 22
Cc1nc(NC(=N)N)nc2ccc(Cl)cc12 [Compound 1013A] :: 52
CCc1ccc2nc(NC(=N)N)cc(C)c2c1 [Compound 4002A] :: 84

## Task Reported rNPFF2 IA, compound Cc1nc(NC(=N)N)nc2ccc(-c3ccccc3)cc12 [Compound 1010A] : ____
## Result 22

## Task Reported rNPFF2 IA, compound Cc1nc(NC(=N)N)nc2ccc(CCCC(C)O)cc12 (stereo not shown) [Compound 1034A] : ____
## Result 101

## Task Reported rNPFF2 IA, compound Cc1nc(NC(=N)N)nc2cc(Br)ccc12 [Compound 1014A] : ____
## Result 47

## Task Reported rNPFF2 IA, compound Cc1nc(NC(=N)N)nc2ccc(Br)cc12 [Compound 1026A] : ____
## Result 19

## Task Reported rNPFF2 IA, compound CCCCc1ccc2nc(NC(=N)N)cc(C)c2c1 [Compound 5001A] : ____
## Result 82

###

Structures can show the parent of a compound that is named as a salt.
readout.label: melting point

Some solved entries appear below for comparison.
Cc1cc2nc(NC(=N)N)nc(C)c2cc1O (as salt: salt) [Compound 1017A] :: 246 to 248 °C (dec.)
Cc1nc(NC(=N)N)nc2cc(C(C)(C)C)ccc12 [Compound 1022A] :: 195 to 198 °C (dec.)
Cc1nc(NC(=N)N)nc2cc3c(cc12)CCC3 [Compound 1038A] :: 295 to 298 °C (dec.)

Could you now consider this next compound?
## Task Reported melting point, compound Cc1nc(NC(=N)N)nc2cc(OCc3ccccc3)ccc12 (as salt: salt) [Compound 1006A] : ____
## Result 215 to 217 °C (dec.)

###

Below, each entry is listed with its recorded pKi.
target: human Y5 receptor (Homo sapiens)
Sequence (Q15761 whole entry): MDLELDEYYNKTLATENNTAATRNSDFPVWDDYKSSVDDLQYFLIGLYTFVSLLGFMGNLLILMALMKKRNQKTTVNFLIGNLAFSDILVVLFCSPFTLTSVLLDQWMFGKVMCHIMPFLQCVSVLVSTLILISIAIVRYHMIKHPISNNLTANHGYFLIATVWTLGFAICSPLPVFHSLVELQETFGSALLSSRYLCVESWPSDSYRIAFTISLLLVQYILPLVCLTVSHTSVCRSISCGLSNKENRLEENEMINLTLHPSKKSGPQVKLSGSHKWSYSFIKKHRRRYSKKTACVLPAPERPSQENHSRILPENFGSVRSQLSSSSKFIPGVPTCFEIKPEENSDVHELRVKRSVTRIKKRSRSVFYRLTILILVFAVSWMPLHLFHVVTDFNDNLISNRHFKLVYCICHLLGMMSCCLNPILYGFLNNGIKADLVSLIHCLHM
Conceptually, pKi converts a concentration in mol/L into minus its log10.

Cc1cc(NC(=N)N)nc2ccc(Cl)cc12 [Compound 4005A] :: 6.45
Cc1cc(NC(=N)N)nc2ccccc12 [Compound 6001A, N-(4-methyl-2-quinolinyl)guanidine] :: 6.13

## Task Reported pKi, compound Cc1nc(NC(=N)N)nc2ccc3ccccc3c12 [Compound 1007A] : ____
## Result 7.13

###

target: rat NPFF2 receptor (Rattus norvegicus, UniProt Q9EQD2)
Construct: The full-length NPFF2 was amplified from rat spinal cord cDNA; expressed in transfected cells; host or cells: not given
assay.method.text: Functional assay (agonist potency, intrinsic activity) at cloned rat NPFF2 receptor
Type: cell-based
stated.conditions: agonist: IA>15%; antagonist: Ki≦1.2 mM and IA≦15% at the rat cloned NPFF receptors
readout.label: classification as agonist or antagonist at the NPFF2 receptor

COc1ccc(C)cc1S(=O)(=O)N[C@@H](CCCNC(=N)N)C(=O)N[C@@H](Cc1ccccc1)C(N)=O [Compound 2003B] :: agonists
N=C(N)NCCC[C@H](NS(=O)(=O)c1c(Cl)cccc1Cl)C(=O)N[C@@H](Cc1ccccc1)C(N)=O [Compound 1019B] :: agonists

###

target: rat NPFF1 receptor (Rattus norvegicus, UniProt Q9EP86)
Construct: expressed in transfected cells; host or cells: not given
Sequence (Q9EP86 whole entry): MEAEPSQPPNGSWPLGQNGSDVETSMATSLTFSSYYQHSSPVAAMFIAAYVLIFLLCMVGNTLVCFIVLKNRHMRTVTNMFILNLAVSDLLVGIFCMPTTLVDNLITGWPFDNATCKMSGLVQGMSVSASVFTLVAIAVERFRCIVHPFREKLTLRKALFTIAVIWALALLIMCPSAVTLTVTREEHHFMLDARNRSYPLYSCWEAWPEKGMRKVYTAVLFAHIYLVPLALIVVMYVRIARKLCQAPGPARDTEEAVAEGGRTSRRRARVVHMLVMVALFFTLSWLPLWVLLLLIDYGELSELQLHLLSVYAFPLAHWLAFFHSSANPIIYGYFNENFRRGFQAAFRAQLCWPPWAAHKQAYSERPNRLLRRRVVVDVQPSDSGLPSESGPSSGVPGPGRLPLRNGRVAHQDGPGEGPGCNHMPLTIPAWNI
assay.method.text: Functional assay (agonist potency, intrinsic activity) at cloned rat NPFF1 receptor
Assay type: cell-based
stated.conditions: agonist: IA>15%; antagonist: Ki≦1.2 mM and IA≦15% at the rat cloned NPFF receptors
readout.label: classification as agonist or antagonist at the NPFF1 receptor

COc1ccc(C)cc1S(=O)(=O)N[C@@H](CCCNC(=N)N)C(=O)N[C@@H](Cc1ccccc1)C(N)=O [Compound 2003B] :: agonists
N=C(N)NCCC[C@H](NS(=O)(=O)c1c(Cl)cccc1Cl)C(=O)N[C@@H](Cc1ccccc1)C(N)=O [Compound 1019B] :: agonists

###

Below, each entry is listed with its recorded Ki.
target: N-methyl-D-aspartate (NMDA) receptor channel complex
assay.method.text: Binding at native NMDA receptor channels
Design: species or system rat
stated.conditions: Table 8
Field: numeric (µM). Do not append units.

CCCCCc1ccc2nc(NC(=N)N)nc(C)c2c1 [Compound 2001A] :: 8.13
CCc1ccc2nc(NC(=N)N)cc(C)c2c1 [Compound 4002A] :: 12.8
CCc1ccc2nc(NC(=N)N)nc(C)c2c1 [Compound 1003A] :: 19.5

Could you now consider this next compound?
## Task Reported Ki, compound CCC(C)c1ccc2nc(NC(=N)N)nc(C)c2c1 (stereo not shown) [Compound 2002A] : ____
## Result 7.62

###

target: serotonin (5HT) transporter (Rattus norvegicus)
Construct: evaluated at native, tissue-derived transporters
Sequence (P31652 whole entry): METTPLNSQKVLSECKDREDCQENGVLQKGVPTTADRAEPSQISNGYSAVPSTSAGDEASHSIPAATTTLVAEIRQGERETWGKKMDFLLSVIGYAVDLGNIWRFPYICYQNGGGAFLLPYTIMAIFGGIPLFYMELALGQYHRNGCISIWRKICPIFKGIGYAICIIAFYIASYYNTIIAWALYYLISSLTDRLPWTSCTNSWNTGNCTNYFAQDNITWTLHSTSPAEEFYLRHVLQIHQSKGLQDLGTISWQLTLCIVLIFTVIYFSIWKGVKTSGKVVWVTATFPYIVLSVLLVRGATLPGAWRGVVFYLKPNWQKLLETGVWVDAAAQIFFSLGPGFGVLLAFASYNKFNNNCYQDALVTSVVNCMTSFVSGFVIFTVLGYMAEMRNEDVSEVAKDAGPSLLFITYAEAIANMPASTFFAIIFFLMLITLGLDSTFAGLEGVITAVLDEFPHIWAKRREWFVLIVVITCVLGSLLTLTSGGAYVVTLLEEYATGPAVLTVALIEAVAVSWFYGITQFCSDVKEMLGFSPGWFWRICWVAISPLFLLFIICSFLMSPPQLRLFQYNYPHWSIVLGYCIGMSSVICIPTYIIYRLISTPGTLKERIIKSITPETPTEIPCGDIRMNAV
assay.method.text: Binding at native serotonin transporter (5HT uptake)
stated.conditions: Table 8
# strict inequality: Ki < 6 µM yields satisfied, everything else yields not satisfied

Solved cases below.
Cc1ccc2c(C)nc(NC(=N)N)nc2c1 [Compound 3001A, N-(4,7-dimethyl-2-quinazolinyl)guanidine] :: not satisfied
Cc1nc(NC(=N)N)nc2ccc(Cl)cc12 [Compound 1013A] :: satisfied
CCCCCc1ccc2nc(NC(=N)N)nc(C)c2c1 [Compound 2001A] :: satisfied
Cc1nc(NC(=N)N)nc2ccc3ccccc3c12 [Compound 1007A] :: satisfied
Cc1cc(NC(=N)N)nc2ccc(Cl)cc12 [Compound 4005A] :: satisfied

## Task In the record for CCc1ccc2c(C)nc(NC(=N)N)nc2c1 [Compound 1020A] , is Ki less than 6 µM?
## Result satisfied

## Task In the record for Cc1ccc2c(C)cc(NC(=N)N)nc2c1 [Compound 4006A, N-(4,7-dimethyl-2-quinolinyl)guanidine] , is Ki less than 6 µM?
## Result not satisfied

## Task In the record for Cc1cc(NC(=N)N)nc2ccccc12 [Compound 6001A, N-(4-methyl-2-quinolinyl)guanidine] , is Ki less than 6 µM?
## Result not satisfied
